Reference source for all entries: patent US9006246B2

// values below are log10 of IC50; system is human ENPP2 (Homo sapiens (Human), UniProt Q13822)
Where a name gives a salt, the structure may show the parent alone.
The base-10 logarithm of IC50, taken with IC50 in nM, is what appears here.

A selection of reference data follows.
CC(C)(CNCC(=O)N1CCc2c(n(Cc3cccc(F)c3)c3ncccc23)C1)C(=O)O [Example 20, hydrochloride]; 1.92
O=C(CC12CCC(C(=O)O)(CC1)CC2)N1CCc2c(n(Cc3ccc(Cl)cc3)c3ncccc23)C1; 1.04
CC(C)(CCCC(=O)N1CCc2c(n(Cc3ccc(Cl)s3)c3ncccc23)C1)C(=O)O; 0.98
O=C(CC12CCC(C(=O)O)(CC1)CC2)N1CCc2c(n(Cc3cccc(F)c3)c3ncccc23)C1; 1.04
C[C@@H]1CN(CC(=O)N2CCc3c(n(Cc4ccc(Cl)s4)c4ccccc34)C2)C[C@H](C)N1CC(=O)O [Example 35(122), dihydrochloride]; 1.54

Parameters: items (list). Returns: log10 of IC50 for each item.
1. Cc1cc(CC(=O)N2CCc3c(n(Cc4csc(Cl)c4)c4ncccc34)C2)ccc1C(=O)O
2. O=C(O)CCCCC(=O)N1CCc2c(n(Cc3cccc(F)c3)c3ncccc23)C1

[0.89, 1.96]

----------
Target: human ENPP2 (Homo sapiens (Human))
Experiment: Measurement of human ENPP2 inhibitory activity
Type: biochemical
Settings: 1 μM test compound; 16:0-LPC substrate, 37° C., 24 hours; read-out: ENPP2 inhibition rate(%) (1 μM)
# if value of inhibition at 1 µM reaches 90%, tag Satisfied; if it stays below, tag Not satisfied

These solved cases illustrate the format of a correct answer.
O=C(O)CCCCCC(=O)N1CCc2c(n(CCCc3ccc(F)cc3)c3ccccc23)C1; Satisfied
CC1CN(C(=O)CCCC(C)(C)C(=O)O)Cc2c1c1cccnc1n2Cc1cccc(F)c1 (centres unmarked); Satisfied
O=C(CC12CCC(C(=O)O)(CC1)CC2)N1CCc2c(n(Cc3cc(F)c(F)cc3F)c3ncccc23)C1; Satisfied
COC(=O)CCCCC(=O)N1CCc2c(n(CCCc3ccccc3)c3ccccc23)C1; Not satisfied
O=C(O)CCCC(=O)N1CCc2c(n(CCCc3ccccc3)c3ncccc23)C1; Not satisfied

Threshold query (inhibition at 1 µM >= 90%) on O=C(CC12CCC(C(=O)O)(CC1)CC2)N1CCc2c(n(Cc3ccc(F)c(F)c3)c3ncccc23)C1
Satisfied

Check the entry O=C(O)CCCCC(=O)N1CCc2c(n(CCSc3ccccc3)c3ncccc23)C1 : does inhibition at 1 µM equal or exceed 90%?
Not satisfied

----------
Exercise: for every item that follows, state its recorded inhibition at 1 µM.
Target: human ENPP2 (Homo sapiens (Human), UniProt Q13822)
Experiment: Measurement of human ENPP2 inhibitory activity
Type: biochemical
Conditions: 1 μM test compound; 16:0-LPC substrate, 37° C., 24 hours; read-out: ENPP2 inhibition rate(%) (1 μM)
Procedure: 10 μL of a test compound solution (10% dimethyl sulfoxide) at each concentration and 40 μL of a 5 μg/mL human ENPP2 solution (buffer A: 100 mmol/L Tris-HCl (pH 9.0), 500 mmol/L NaCl, 5 mmol/L MgCl2, 0.05% Triton X-100) were mixed, 50 μL of a 2 mmol/L 16:0-lysophosphatidylcholine (LPC) solution (buffer A) was further added to react at 37° C. for 24 hours. […]
Answers are plain numbers, in %.

Some compounds with known inhibition at 1 µM results, for comparison:
O=C(CC12CCC(C(=O)O)(CC1)CC2)N1CCc2c(n(Cc3cc(F)cc(F)c3)c3ncccc23)C1; 99
O=C(CC12CCC(C(=O)O)(CC1)C2)N1CCc2c(n(Cc3ccc(F)cc3F)c3ncccc23)C1; 98.9
CC(C)(OCC(=O)N1CCc2c(n(Cc3cccc(F)c3)c3ncccc23)C1)C(=O)O; 89.6
CC1(C)[C@@H](CC(=O)N2CCc3c(n(Cc4ccc(F)cc4)c4ncccc34)C2)CC[C@@]1(C)C(=O)O; 99.5
COc1cc(CC(=O)N2CCc3c(n(Cc4cc(F)cc(F)c4)c4ncccc34)C2)ccc1C(=O)O; 96.2

Please state, for each entry, its recorded inhibition at 1 µM.
1. O=C(C[C@H]1CC[C@H](C(=O)O)CC1)N1CCc2c(n(Cc3ccc(F)cc3F)c3ncccc23)C1
2. O=C(O)CCCCC(=O)N1CCc2c(n(Cc3cccs3)c3ncccc23)C1
3. O=C(CC12CCC(C(=O)O)(CC1)C2)N1CCc2c(n(Cc3cccc(F)c3)c3ncccc23)C1
4. O=C(CC12CCC(C(=O)O)(CC1)C2)N1CCc2c(n(Cc3ccc(F)cc3)c3ncccc23)C1
5. O=C(CC12CCC(C(=O)O)(CC1)C2)N1CCc2c(n(Cc3ccc(Cl)cc3)c3ncccc23)C1

1. 98.2
2. 69.3
3. 98.7
4. 98.8
5. 99.3

Go through the list and state inhibition at 1 µM for each entry.
1. O=C(C[C@H]1CC[C@H](C(=O)O)CC1)N1CCc2c(n(Cc3ccc(Cl)cc3)c3ncccc23)C1
2. CC(C)(CCC(=O)N1CCc2c(n(Cc3ccccc3)c3ccccc23)C1)CC(=O)O

[98.6, 84.1]

Count: 3. Required value per item: inhibition at 1 µM.
1. CC1(C)[C@@H](CC(=O)N2CCc3c(n(Cc4ccc(Cl)cc4F)c4ncccc34)C2)CC[C@@]1(C)C(=O)O
2. O=C(O)CCCCC(=O)N1CCc2c(n(CCOc3ccccc3)c3ncccc23)C1
3. COc1cc(CC(=O)N2CCc3c(n(Cc4cc(F)c(F)cc4F)c4ncccc34)C2)ccc1C(=O)O

[99.5, 76.6, 97.5]
